Source listed as patent US20240141038A1.

// Top mean fluorescence intensity (Top MFI), NK cell activation (CD107a) lookup, one value per entry
# assay-system: human NKp46 (full length, on cells) (human, UniProt O76036 22-304); note: unit not given here
# Sequence (O76036 22-304 Q82K): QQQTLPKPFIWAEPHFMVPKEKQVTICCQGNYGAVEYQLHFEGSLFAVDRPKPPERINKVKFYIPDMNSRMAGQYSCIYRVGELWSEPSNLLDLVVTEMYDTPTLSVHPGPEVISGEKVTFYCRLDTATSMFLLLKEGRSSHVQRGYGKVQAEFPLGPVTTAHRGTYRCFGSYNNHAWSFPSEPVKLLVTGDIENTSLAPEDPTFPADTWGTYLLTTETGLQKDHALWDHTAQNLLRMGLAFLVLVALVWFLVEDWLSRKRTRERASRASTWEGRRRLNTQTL
# assay-summary: cell-based or functional assay
No unit in the answer, only the number.

Recorded results for 2 binders are shown here.
H1-PA27 humanized antibody (antibody, human IgG1, V domains shown, also called hPA27; not shown: constant region of human IgG1) VH: QVQLVESGGGVVQPGRSLRLSCAASGRTESWYRMGWVRQAPGKGLEWVARISGDTNIKYYAGSVKGRFTISRDNSKNTLYLQMSSLRAEDTAVYYCAADRTGATWDYWGQGTLVTVSS    6.3
H4-PA27 humanized antibody (antibody, human IgG1, V domains shown, not shown: constant region of human IgG1) VH: DVQLVESGGGVVQPGRSLRLSCAASGRTESWYRMGWFRQAPGKGREVVARISGDTNIKYYAGSVKGRFTISRDNSKNTLYLQMSSLRAEDTAVYYCAADRTGATWDYWGQGTLVTVSS    18.1

Consider the binder shown here: H2-PA27 humanized antibody (antibody, human IgG1, V domains shown, not shown: constant region of human IgG1) VH: QVQLVESGGGVVQPGRSLRLSCAASGRTESWYRMGWFRQAPGKGLEVVARISGDTNIKYYAGSVKGRFTISRDNSKNTLYLQMSSLRAEDTAVYYCAADRTGATWDYWGQGTLVTVSS What is its recorded Top mean fluorescence intensity (Top MFI), NK cell activation (CD107a)?
14.1

Please give the measured Top mean fluorescence intensity (Top MFI), NK cell activation (CD107a) for this binder: H4-PA45 humanized antibody (antibody, V domains shown, not shown: constant region of human IgG1) VH: EVQLVESGGGLVQPGGSLRLSCAASGRTFSRLPMAWFRQAPGKDREFVAAISWSGGSTYYADSMKGRFTISRDNSKNTAYLQMNSLRAEDTAVYYCAAVGDSAPYSATIVYTDARAYAYWGQGTLVTVSS
37.6
